# TEST NAME: Drug concentration in C57BL/6 mouse cerebrospinal fluid at 10 mg/kg, ip after 2 hrs by UPLC method
# Assay type: ADME, organism-based
# CONDITION SUMMARY: read-out: Drug uptake
EXPERIMENTAL ENDPOINT: concentration at 2 h (ng/mL)
Answer with a number only, understood to be in ng/mL.

Query :: What does the record list as concentration at 2 h for CCCCNc1nc2ccccc2[nH]1 ?
Result :: 335

###

# MEASURED ON: UniProt:Q9QUQ5
# Sequence (Q9QUQ5 whole entry): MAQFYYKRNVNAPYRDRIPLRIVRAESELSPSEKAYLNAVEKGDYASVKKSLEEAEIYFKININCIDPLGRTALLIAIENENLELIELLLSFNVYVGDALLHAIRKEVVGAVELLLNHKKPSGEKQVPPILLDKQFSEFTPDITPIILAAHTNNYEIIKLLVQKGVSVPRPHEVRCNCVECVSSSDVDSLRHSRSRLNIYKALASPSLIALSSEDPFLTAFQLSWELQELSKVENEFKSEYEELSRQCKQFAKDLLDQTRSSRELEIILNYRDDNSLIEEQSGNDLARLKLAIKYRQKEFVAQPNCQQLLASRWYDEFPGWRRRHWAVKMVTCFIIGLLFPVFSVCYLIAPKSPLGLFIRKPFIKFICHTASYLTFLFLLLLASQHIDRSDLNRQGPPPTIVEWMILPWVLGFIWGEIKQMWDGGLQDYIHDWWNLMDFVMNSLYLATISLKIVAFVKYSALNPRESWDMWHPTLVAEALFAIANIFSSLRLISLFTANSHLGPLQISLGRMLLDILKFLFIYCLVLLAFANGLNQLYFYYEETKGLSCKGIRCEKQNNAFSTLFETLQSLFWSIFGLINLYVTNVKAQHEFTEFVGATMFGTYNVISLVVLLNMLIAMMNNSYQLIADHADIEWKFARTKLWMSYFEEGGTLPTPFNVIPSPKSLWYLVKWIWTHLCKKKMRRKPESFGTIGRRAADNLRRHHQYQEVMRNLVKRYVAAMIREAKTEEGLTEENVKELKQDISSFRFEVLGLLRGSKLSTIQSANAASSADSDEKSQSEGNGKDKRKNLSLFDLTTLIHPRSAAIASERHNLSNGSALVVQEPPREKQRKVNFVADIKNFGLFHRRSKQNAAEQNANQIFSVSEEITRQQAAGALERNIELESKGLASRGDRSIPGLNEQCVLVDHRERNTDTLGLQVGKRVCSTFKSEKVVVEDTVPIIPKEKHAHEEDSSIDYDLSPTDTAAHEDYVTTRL
# TEST NAME: Inhibition of mouse TRPC4 beta expressed in HEK293 cells co-expressing mu-opioid receptor assessed as reduction in DAMGO-induced membrane potential by FMP-2 dye based assay
# Format: cell-based
EXPERIMENTAL ENDPOINT: pIC50
pIC50 is defined as minus the log10 of a concentration measured in mol/L.

Query :: Name the reported pIC50 value associated with the compound c1ccc2[nH]c(N3CCCCC3)nc2c1
Result :: 4.96

Query :: Could you tell me which pIC50 is on file for c1ccc2[nH]c(NC34CC5CC(CC(C5)C3)C4)nc2c1 ?
Result :: 4.99

Query :: Returns the measured pIC50 for the input compound. Input: CC1CCCCN1c1nc2ccccc2[nH]1 (stereo unspecified)
Result :: 5.37

Query :: Which pIC50 is reported for this compound? c1ccc2[nH]c(N3CCCC3)nc2c1
Result :: 5.26

Query :: Please look up its pIC50: CC1CCN(c2nc3ccccc3[nH]2)CC1
Result :: 5.28

Query :: Find the recorded pIC50 belonging to CC1CCN(c2nc3cc(Cl)ccc3[nH]2)CC1 and report it.
Result :: 5.39

###

# MEASURED ON: Short transient receptor potential channel 5 (Mus musculus)
# Sequence (Q9QX29 whole entry): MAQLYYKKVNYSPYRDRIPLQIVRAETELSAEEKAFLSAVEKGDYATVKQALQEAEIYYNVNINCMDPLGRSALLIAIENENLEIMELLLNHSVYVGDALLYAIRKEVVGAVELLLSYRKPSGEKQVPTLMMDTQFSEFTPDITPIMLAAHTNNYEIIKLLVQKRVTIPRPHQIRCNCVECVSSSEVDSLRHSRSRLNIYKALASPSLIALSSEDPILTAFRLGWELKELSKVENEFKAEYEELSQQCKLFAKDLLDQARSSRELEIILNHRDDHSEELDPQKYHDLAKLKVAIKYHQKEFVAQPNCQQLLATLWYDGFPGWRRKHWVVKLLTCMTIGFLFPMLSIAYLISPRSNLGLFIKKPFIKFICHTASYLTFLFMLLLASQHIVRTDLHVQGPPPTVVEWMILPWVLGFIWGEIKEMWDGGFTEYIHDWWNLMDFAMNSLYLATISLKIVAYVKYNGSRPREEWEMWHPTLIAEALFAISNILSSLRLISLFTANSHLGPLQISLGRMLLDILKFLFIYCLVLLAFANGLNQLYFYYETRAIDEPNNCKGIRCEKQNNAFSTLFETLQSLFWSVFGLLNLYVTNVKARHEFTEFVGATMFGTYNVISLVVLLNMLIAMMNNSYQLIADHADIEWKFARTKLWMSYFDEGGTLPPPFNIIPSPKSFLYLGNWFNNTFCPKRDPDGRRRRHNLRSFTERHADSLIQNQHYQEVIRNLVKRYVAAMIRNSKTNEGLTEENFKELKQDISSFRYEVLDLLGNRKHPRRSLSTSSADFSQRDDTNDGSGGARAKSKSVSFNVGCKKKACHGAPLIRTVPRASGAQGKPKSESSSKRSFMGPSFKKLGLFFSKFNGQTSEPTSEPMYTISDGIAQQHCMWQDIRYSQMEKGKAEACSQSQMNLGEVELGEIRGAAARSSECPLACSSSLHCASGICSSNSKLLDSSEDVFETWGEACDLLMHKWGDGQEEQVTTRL
# TEST NAME: Inhibition of mouse TRPC5 expressed in thapsigargin treated HEK293/TREx cells assessed as reduction in intracellular calcium level in presence of GPCR agonist by fluorescence method
# Assay type: cell-based
EXPERIMENTAL ENDPOINT: IC50 (nM)
The answer is to be given in nM; state only the numeric part.

Query :: // lookup IC50 for Clc1ccc(Cn2c(CN3CCCC3)nc3ccccc32)cc1
Result :: 1100

###

# MEASURED ON: Short transient receptor potential channel 3 (Homo sapiens, UniProt Q13507)
# TEST NAME: Inhibition of YFP-tagged human TRPC3 expressed in thapsigargin treated HEK293 cells assessed as reduction in amix-induced calcium level by fluo-4 dye based fluorescence assay
# Type: cell-based
EXPERIMENTAL ENDPOINT: IC50 (µM)
Give just the number in µM; leave the unit off.

Query :: Looking for the measured IC50 of Clc1ccc(Cn2c(CN3CCCC3)nc3ccccc32)cc1 [CLEMIZOLE] , can you help?
Result :: 9.1

###

# MEASURED ON: Short transient receptor potential channel 3 (Homo sapiens)
# TEST NAME: Inhibition of human TRPC3 expressed in CHO cells assessed as reduction in OAG-induced calcium influx after 10 mins by fluo-4/AM dye based FLIPR assay
# Format: cell-based
EXPERIMENTAL ENDPOINT: IC50
Put down the number, then write its unit next to it.

Query :: What value of IC50 has been reported for the following molecule? N#Cc1ccc(O[C@@H]2c3ccccc3C[C@H]2N2CCC[C@@H](N)C2)c(Cl)c1
Result :: 282 nM

###

# MEASURED ON: Short transient receptor potential channel 4 (Homo sapiens, UniProt Q9UBN4)
# Sequence (Q9UBN4 whole entry): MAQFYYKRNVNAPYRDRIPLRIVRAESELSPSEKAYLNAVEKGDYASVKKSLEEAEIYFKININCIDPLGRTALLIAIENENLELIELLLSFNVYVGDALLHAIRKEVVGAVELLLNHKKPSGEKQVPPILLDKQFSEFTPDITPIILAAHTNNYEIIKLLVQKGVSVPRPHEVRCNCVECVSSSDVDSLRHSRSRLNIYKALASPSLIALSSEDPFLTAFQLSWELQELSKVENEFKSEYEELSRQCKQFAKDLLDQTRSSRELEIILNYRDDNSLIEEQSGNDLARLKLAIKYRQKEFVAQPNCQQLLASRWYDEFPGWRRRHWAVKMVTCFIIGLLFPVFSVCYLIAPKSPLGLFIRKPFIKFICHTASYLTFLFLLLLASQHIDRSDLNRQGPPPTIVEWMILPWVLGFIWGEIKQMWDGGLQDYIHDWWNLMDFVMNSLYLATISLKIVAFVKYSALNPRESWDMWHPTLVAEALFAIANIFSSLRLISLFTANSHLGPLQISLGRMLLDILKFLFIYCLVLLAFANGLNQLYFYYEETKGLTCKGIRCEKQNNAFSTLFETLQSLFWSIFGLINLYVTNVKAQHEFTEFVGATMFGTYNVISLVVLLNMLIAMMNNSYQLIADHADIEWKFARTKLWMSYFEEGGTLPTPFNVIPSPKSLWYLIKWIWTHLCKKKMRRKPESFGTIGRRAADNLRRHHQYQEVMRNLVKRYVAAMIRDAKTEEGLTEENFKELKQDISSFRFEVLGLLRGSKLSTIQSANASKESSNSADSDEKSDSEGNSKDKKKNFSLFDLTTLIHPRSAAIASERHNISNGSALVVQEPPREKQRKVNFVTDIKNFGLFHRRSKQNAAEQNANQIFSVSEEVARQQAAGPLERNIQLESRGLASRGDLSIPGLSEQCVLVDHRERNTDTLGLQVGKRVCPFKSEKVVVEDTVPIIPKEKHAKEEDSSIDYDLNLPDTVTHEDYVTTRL
# TEST NAME: Inhibition of human TRPC4 expressed in HEK293 cells assessed as reduction in sphingosine-1-phosphate-induced current at -100 mV by patch clamp assay
# Assay type: cell-based
EXPERIMENTAL ENDPOINT: IC50 (nM)
Just the number in nM, nothing appended.

Query :: # query: IC50 of entry Cn1c(=O)n(CCCO)c(=O)c2c1nc(Oc1cccc(OC(F)(F)F)c1)n2Cc1ccc(Cl)cc1 [ZERENCOTREP]
Result :: 0.012

###

# MEASURED ON: Short transient receptor potential channel 3 (Homo sapiens)
# Sequence (Q13507 whole entry): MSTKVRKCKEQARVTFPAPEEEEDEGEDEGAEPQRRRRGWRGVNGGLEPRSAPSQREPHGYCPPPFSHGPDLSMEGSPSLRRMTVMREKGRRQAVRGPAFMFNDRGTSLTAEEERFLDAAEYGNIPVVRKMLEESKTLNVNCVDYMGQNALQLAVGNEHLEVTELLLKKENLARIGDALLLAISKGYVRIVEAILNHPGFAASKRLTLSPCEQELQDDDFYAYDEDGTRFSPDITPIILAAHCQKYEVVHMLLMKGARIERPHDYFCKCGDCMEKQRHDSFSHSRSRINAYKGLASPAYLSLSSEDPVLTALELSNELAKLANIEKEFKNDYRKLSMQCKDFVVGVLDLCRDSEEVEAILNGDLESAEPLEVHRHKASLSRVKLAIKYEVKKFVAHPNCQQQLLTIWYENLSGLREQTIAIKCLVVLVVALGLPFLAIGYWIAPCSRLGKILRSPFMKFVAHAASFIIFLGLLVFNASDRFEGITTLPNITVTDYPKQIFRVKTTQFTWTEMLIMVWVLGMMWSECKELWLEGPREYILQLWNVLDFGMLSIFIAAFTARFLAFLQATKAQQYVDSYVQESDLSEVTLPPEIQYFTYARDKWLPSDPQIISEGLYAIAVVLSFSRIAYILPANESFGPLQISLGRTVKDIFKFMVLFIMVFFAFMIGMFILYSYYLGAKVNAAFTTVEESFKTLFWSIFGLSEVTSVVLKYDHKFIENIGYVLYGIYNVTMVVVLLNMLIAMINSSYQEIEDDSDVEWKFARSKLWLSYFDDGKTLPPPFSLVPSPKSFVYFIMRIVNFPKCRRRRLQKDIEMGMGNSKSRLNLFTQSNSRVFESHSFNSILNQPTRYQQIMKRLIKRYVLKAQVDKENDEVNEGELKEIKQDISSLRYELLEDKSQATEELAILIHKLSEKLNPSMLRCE
# TEST NAME: Inhibition of YFP-tagged TRPC3 (unknown origin) expressed in HEK293 cells assessed as reduction carbhocol-induced receptor operated Calcium influx after 5 mins by fura-2-AM dye based assay
# Type: cell-based
EXPERIMENTAL ENDPOINT: IC50 (nM)
// note: answer is a bare numeric in nM

Query :: Fill in the recorded IC50 for this compound, with Short transient receptor potential channel 3 (Homo sapiens) as test system: O=C(Nc1ccc(-n2nc(C(F)(F)F)cc2C(F)(F)F)cc1)c1ccncc1F
Result :: 18500

Query :: API: value(readout= IC50, system= Short transient receptor potential channel 3 (Homo sapiens), query= Cc1ccc(S(=O)(=O)Nc2ccc(-n3nc(C(F)(F)F)cc3C(F)(F)F)cc2)cc1 )
Result :: 720

Query :: Hi! What's the reported IC50 for Cc1nnsc1C(=O)Nc1ccc(-n2nc(C(F)(F)F)cc2C(F)(F)F)cc1 on Short transient receptor potential channel 3 (Homo sapiens)?
Result :: 4210

Query :: Form field: IC50 recorded for CCOC(=O)c1cnn(-c2ccc(NC(=O)C(Cl)=C(Cl)Cl)cc2)c1C(F)(F)F with Short transient receptor potential channel 3 (Homo sapiens) (enter value)
Result :: 540

###

# MEASURED ON: UniProtKB Q9QX29
# TEST NAME: Inhibition of mouse TRPC5 expressed in HEK293 cells co-expressing mu-opioid receptor assessed as reduction in DAMGO-induced membrane potential by FMP-2 dye based assay
# Format: cell-based
Flag rule - IC50 less than 7 µM flags 1; the remaining entries get -1.

Query :: Say whether its IC50 is strictly beneath 7 µM. Entry: c1ccc2[nH]c(NC34CC5CC(CC(C5)C3)C4)nc2c1
Result :: -1

Query :: Strictly below 7 µM: is that where IC50 of CC1CCCCN1c1nc2ccccc2[nH]1 (stereo unspecified) sits?
Result :: 1

Query :: Hello, is IC50 of the following compound strictly smaller than 7 µM? CC1CCN(c2nc3cc(Cl)ccc3[nH]2)CC1
Result :: 1

Query :: In the record for CC1CCN(c2nc3ccccc3[nH]2)CC1 , is IC50 less than 7 µM?
Result :: 1

Query :: For c1ccc2[nH]c(N3CCCCC3)nc2c1 , is the recorded IC50 below the cut-off of 7 µM?
Result :: -1

Query :: In the record for c1ccc2[nH]c(N3CCCC3)nc2c1 , is IC50 less than 7 µM?
Result :: -1

###

Task for the reader: assign each of the following compounds its reported pIC50.
# MEASURED ON: Short transient receptor potential channel 5 (Homo sapiens, UniProt Q9UL62)
# Sequence (Q9UL62 whole entry): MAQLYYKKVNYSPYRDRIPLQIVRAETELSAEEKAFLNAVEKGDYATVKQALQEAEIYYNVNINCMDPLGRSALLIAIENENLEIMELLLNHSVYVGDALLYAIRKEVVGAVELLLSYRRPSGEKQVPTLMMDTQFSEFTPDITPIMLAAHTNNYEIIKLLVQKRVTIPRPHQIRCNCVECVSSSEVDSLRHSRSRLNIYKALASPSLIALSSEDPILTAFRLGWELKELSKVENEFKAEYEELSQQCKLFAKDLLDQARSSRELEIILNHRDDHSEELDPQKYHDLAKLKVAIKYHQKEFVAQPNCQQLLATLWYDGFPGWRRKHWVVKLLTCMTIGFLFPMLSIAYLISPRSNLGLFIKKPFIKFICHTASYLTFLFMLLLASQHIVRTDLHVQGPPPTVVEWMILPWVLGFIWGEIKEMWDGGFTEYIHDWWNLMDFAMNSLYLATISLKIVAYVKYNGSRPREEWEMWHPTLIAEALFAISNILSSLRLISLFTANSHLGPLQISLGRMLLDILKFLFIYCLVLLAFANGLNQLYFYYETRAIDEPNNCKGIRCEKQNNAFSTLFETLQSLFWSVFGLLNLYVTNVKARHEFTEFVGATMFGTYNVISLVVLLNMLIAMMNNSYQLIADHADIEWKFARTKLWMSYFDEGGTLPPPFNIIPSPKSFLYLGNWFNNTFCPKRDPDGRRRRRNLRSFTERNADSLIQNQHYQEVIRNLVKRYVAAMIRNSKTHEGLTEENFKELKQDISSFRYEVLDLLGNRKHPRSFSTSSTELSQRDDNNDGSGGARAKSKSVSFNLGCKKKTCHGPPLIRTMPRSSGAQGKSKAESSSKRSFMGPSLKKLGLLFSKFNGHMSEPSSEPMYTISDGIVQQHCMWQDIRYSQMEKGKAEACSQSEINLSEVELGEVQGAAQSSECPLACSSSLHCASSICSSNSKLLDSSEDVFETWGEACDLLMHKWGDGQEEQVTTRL
# TEST NAME: Inhibition of TRPC5 (unknown origin) expressed in HEK293/TREx cells assessed as reduction in intracellular calcium level measured for 3 mins by fluo4 dye-based fluorescence assay
# Format: cell-based
pIC50: −log10 of the molar value.

Query :: Item: CC(C)CCc1c(-c2cccc(OC(F)(F)F)c2)sc2c1c(=O)n(CCCO)c(=O)n2C Test system: Short transient receptor potential channel 5 (Homo sapiens, UniProt Q9UL62) Read-out: pIC50 Value: ?
Result :: 5.77 to 7.68

Query :: Item: Cn1c(=O)n(CCCO)c(=O)c2c(C(O)c3ccc(Cl)cc3)c(Oc3cccc(OC(F)(F)F)c3)sc21 (stereo not given) Test system: Short transient receptor potential channel 5 (Homo sapiens, UniProt Q9UL62) Read-out: pIC50 Value: ?
Result :: 5.77 to 7.68

Query :: Record Cn1c(=O)n(CCCO)c(=O)c2c(Cc3ccccc3)c(Oc3cccc(Cl)c3)ccc21 : what is its pIC50 with Short transient receptor potential channel 5 (Homo sapiens, UniProt Q9UL62)?
Result :: 6.40 to 9.00

Query :: What reported pIC50 corresponds to Cc1cn(Cc2ccc(Cl)cc2)c2c(=O)n(CCCO)c(=O)n(C)c12 on Short transient receptor potential channel 5 (Homo sapiens, UniProt Q9UL62)?
Result :: 5.12 to 6.39

Query :: Given the entry Cc1c(-c2ccc(Cl)cc2)sc2c1c(=O)n(CCCO)c(=O)n2C , what pIC50 was observed with Short transient receptor potential channel 5 (Homo sapiens, UniProt Q9UL62)?
Result :: 5.77 to 7.68

Query :: Record CC(C)CCc1c(-c2ccccc2C(C)C)ncc2c1c(=O)n(CCCO)c(=O)n2C : what is its pIC50 with Short transient receptor potential channel 5 (Homo sapiens, UniProt Q9UL62)?
Result :: 5.01 to 6.71

Query :: GET /values?readout=pIC50&system=Short transient receptor potential channel 5 (Homo sapiens, UniProt Q9UL62)&item= Cn1c(=O)n(CCCO)c(=O)c2c(Cc3ccc(F)cc3)c(Oc3cccc(OC(F)(F)F)c3)ccc21
Result :: 6.40 to 9.00

Query :: Recall the recorded pIC50 for Cc1c(-c2cccc(OC(F)(F)F)c2)n(C)c2c(=O)n(CCCO)c(=O)n(C)c12 with Short transient receptor potential channel 5 (Homo sapiens, UniProt Q9UL62) and state it.
Result :: 5.12 to 6.39

Query :: Param readout = pIC50; param system = Short transient receptor potential channel 5 (Homo sapiens, UniProt Q9UL62); param query = Cc1c(-c2ccc(F)c(F)c2)sc2c1c(=O)n(CCCO)c(=O)n2C ; response: value
Result :: 5.77 to 7.68

Query :: # value lookup — system Short transient receptor potential channel 5 (Homo sapiens, UniProt Q9UL62), readout pIC50, item Cc1c(-c2ccccc2OC(F)(F)F)sc2c1c(=O)n(CCCO)c(=O)n2C
Result :: 5.77 to 7.68
